- Target System: CXCR7 (Homo sapiens, UniProt P25106)
- Construct: host or cells: CHO (PathHunter CHO-CXCR7 β-arrestin cells)
- Sequence (P25106 whole entry): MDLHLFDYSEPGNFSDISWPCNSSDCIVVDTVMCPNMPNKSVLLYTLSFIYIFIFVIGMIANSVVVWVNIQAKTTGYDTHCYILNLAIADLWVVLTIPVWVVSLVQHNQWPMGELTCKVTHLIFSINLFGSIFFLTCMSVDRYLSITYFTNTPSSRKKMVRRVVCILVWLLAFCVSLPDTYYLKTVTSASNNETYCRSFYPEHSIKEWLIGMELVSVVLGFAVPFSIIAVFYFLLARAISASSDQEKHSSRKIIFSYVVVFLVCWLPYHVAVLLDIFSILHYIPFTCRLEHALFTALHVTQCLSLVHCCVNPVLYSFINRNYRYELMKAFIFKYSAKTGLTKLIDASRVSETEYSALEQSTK
- Experiment: CXCR7 β-arrestin recruitment assay (PathHunter CHO-CXCR7, DiscoverX), agonistic assay
- Assay type: cell-based
- Reported Conditions: agonistic assay; CHO CXCR7 β-arrestin cells; 90 min at 37° C.; chemiluminescence; read-out: β-Arrestin EC50
Non-standard residues stand in square brackets, D forms with d. Residues, ends and D or L forms follow the SMILES beside them. dPro(cis-4-NH2) = N[C@H]1CN[C@@H](C(=O)O)C1; 2Nal = N[C@@H](Cc1ccc2ccccc2c1)C(=O)O; Pro(3S-OH) = O=C(O)[C@H]1NCC[C@@H]1O; Tic = O=C(O)[C@@H]1Cc2ccccc2CN1
Parameter Measured: EC50 (µM)

>  <Compound>
N=C(N)NCCC[C@@H]1NC(=O)[C@H](Cc2c[nH]c3ccccc23)NC(=O)[C@@H](Cc2ccccc2)NC(=O)[C@H](Cc2ccc(O)cc2)NC(=O)[C@@H]2Cc3ccccc3CN2C(=O)[C@H]2C[C@@H](N)CN2C1=O [compound 28] (cyclo(R[dPro(cis-4-NH2)][Tic]Y[dF]W))

>  <Parameter Measured>
EC50

>  <Unit Symbol>
µM

>  <Reported>
0.0209

$$$$
>  <Compound>
CC[C@H](C)[C@@H]1NC(=O)[C@H]([C@@H](C)O)NC(=O)[C@H]2CCCN2C(=O)[C@H](Cc2ccc(O)cc2)NC(=O)[C@H](CCCNC(=N)N)NC(=O)[C@@H](CCCNC(=N)N)NC1=O [Ex. 2, cyclo(-Ile-^DArg-Arg-Tyr-^DPro-Thr-)] (cyclo(I[dR]RY[dP]T))

>  <Parameter Measured>
EC50

>  <Unit Symbol>
µM

>  <Reported>
0.0837

$$$$
>  <Compound>
CC[C@H](C)[C@@H]1NC(=O)[C@H]([C@@H](C)O)NC(=O)[C@H]2CCCN2C(=O)[C@H](Cc2c[nH]c3ccccc23)NC(=O)[C@H](CCCNC(=N)N)NC(=O)[C@@H](CCCCN)NC1=O [compound 11, cyclo(-Ile-^DLys-Arg-Trp-^DPro-Thr-)] (cyclo(I[dK]RW[dP]T))

>  <Parameter Measured>
EC50

>  <Unit Symbol>
µM

>  <Reported>
0.0867

$$$$
>  <Compound>
CC[C@H](C)[C@@H]1NC(=O)[C@@H]2[C@@H](O)CCN2C(=O)[C@H]2CCCN2C(=O)[C@H](Cc2ccc3ccccc3c2)NC(=O)[C@H](CCCNC(=N)N)NC(=O)[C@@H](CCCNC(=N)N)NC1=O [compound 53] (cyclo([2Nal][dP][Pro(3S-OH)]I[dR]R))

>  <Parameter Measured>
EC50

>  <Unit Symbol>
µM

>  <Reported>
0.0768

$$$$

Reference source: patent US9637520B2
